Here the recorded Mean % WT Binding is given for each entry.
- SYSTEM NAME: human CD33 variant P48T (human, UniProt P20138 18-364)
- Sequence (P20138 18-364 P48T limits assumed): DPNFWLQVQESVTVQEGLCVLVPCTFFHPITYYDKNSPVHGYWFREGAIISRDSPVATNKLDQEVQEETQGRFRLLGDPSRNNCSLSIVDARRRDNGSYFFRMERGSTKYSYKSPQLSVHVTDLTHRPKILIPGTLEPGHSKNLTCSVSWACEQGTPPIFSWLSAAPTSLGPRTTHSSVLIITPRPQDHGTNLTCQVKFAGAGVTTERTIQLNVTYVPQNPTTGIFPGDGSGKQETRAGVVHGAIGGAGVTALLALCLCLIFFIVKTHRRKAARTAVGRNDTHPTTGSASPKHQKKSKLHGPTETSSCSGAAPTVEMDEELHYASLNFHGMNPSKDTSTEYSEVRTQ
- EXPERIMENT DESCRIPTION: flow cytometry, IgG on cells expressing the mutant

Below, 3 binders whose answers are already recorded.
BINDER | Mean % WT Binding
Refmab #1 (antibody, human IgG1, V domains shown, Tested in IgG format; human IgG1 (Absolute Antibody hP67.6, Cat. No. Ab00283-10.0); also called hP67.6) VH: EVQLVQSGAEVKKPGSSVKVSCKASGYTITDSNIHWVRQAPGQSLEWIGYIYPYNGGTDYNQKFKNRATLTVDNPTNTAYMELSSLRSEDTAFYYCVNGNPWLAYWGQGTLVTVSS VL: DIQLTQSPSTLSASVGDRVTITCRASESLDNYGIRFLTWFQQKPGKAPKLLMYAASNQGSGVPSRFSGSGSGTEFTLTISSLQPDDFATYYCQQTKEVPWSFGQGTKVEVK | 106 % of WT
Refmab #4 (antibody, human IgG1, V domains shown, Tested in IgG format; human IgG1 Fc silent (PG-LALA)) VH: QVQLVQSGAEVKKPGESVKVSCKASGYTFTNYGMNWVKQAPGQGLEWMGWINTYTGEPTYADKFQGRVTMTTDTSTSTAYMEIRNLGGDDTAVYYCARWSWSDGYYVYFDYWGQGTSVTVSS VL: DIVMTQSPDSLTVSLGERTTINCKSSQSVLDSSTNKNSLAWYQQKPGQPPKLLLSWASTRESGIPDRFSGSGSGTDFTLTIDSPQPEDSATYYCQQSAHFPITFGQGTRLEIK | 11.7 % of WT
Refmab #3 (antibody, human IgG1, V domains shown, Tested in IgG format; human IgG1 Fc silent (PG-LALA)) VH: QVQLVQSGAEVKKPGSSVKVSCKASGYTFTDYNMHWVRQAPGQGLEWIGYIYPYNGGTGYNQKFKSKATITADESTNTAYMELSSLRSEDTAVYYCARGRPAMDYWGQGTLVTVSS VL: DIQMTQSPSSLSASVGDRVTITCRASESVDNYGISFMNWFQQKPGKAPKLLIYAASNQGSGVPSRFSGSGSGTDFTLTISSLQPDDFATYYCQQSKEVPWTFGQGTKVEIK | 102 % of WT

Assign Mean % WT Binding to the following record: Refmab #2 (antibody, human IgG1, V domains shown, Tested in IgG format; human IgG1 Fc silent (PG-LALA)) VH: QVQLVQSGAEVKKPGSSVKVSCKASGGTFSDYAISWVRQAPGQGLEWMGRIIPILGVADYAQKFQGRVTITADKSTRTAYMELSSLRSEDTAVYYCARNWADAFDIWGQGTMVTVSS VL: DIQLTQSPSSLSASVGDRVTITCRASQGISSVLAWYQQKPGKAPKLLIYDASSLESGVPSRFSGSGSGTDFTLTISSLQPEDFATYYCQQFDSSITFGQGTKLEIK 71.3 % of WT
